test system: 7G8; experiment: qHTS profiling for inhibitors of Plasmodium falciparum proliferation (AID 504749); note: nearly all actives have a fitted effect of over 60% in size; conditions: P. falciparum in erythrocytes, SYBR Green DNA, 72 h; series mostly up to 28.7 µM
Inconclusive results are not listed. Calls of active or inactive are those of the source. Calls come from the whole dose curve; as a rule, active = well fitted inhibition curve with a large enough effect; inconclusive = small, poorly fitted or top-dose-only effect; inactive = flat fitted curve, though single readings scatter.
Classes used: active, inactive

compound	class
CC(/C=C1\SC(=S)N(CC(=O)O)C1=O)=C\c1ccccc1	inactive
CN=C(N)NCCCC(N)C(=O)O (stereo unspecified)	inactive
CC(C)C[C@H]1C(=O)N2CCCC2[C@]2(O)O[C@](NC(=O)[C@@H]3C=C4c5cccc6[nH]c(Br)c(c56)C[C@H]4N(C)C3)(C(C)C)C(=O)N12 (stereo partly specified)	active
Oc1ccc(/C=C\c2cc(O)cc(O)c2)cc1	inactive
CN1C(=O)CCC1c1cccnc1 (stereo unspecified)	inactive
C[C@@H]1[C@H](O)[C@@H](C)/C=C/C=C/C=C/C=C/C=C/C=C/C=C/[C@H](O[C@@H]2O[C@H](C)[C@@H](O)[C@H](N)[C@@H]2O)C[C@@H]2O[C@](O)(C[C@@H](O)C[C@@H](O)[C@H](O)CC[C@@H](O)C[C@@H](O)CC(=O)O[C@H]1C)C[C@H](O)[C@H]2C(=O)O	inactive

* * *

test: qHTS Assay for Lipid Storage Modulators (AID 1519); conditions: Drosophila S3 cells, BODIPY lipid droplet/cell ratio, laser cytometry; at 57.5 µM (top of the series); cells loaded with oleic acid; note: % is set by controls: 0 for no effect and ±100 for the full control effect
Records with an inconclusive call do not appear.
This section presents molecules with their documented activity change, negative = inhibition values.
measurement_name: activity change, negative = inhibition (%)

> print(dat)
                                    molecule                        measurement.name  endpoint.unit  endpoint.value
 1  Cc1noc(C)c1-c1ccc2ncnc(Nc3ccc(F)cc3)c2c1  activity change, negative = inhibition              %            6.07
 2  FC(F)(F)c1ccccc1-c1nc(NCCN2CCOCC2)c2ccccc2n1  activity change, negative = inhibition              %            4.77
 3    COC(=O)N1CCC2(CC1)CN(C(=O)Nc1ccccc1)C2  activity change, negative = inhibition              %            5.14
 4  CC1COC2=C1C(=O)C(=O)c1c2ccc2c1CCCC2(C)C (stereo not drawn)  activity change, negative = inhibition              %            2.92
 5             c1ccc(Nc2cc(-c3ccoc3)ncn2)cc1  activity change, negative = inhibition              %            8.08
 6  COc1ccc(Oc2ncc3nc(-c4ccc(OC)cc4)c(=O)n(C)c3n2)cc1  activity change, negative = inhibition              %            2.79
 7  CS(=O)(=O)N1CCC2(CC1)CN(c1cccc(-c3ccccc3)c1)C2  activity change, negative = inhibition              %           -16.1
 8  CC(C)CN1CC[C@@]2(CCCN(C(=O)c3csnn3)C2)C1  activity change, negative = inhibition              %            1.65
 9  COCCn1c(=O)c(-c2ccc(Cl)cc2)nc2cnc(OCc3ccccc3)nc21  activity change, negative = inhibition              %           -8.74
10  CN(C)c1ncc2nc(-c3cccs3)c(=O)n(CCC#N)c2n1  activity change, negative = inhibition              %            5.59
11           Cc1nc2cnc(Oc3ccccc3)nc2n(C)c1=O  activity change, negative = inhibition              %             6.1
12  Cc1noc(C)c1C(=O)N1CCC[C@@]2(CCN(C(=O)Nc3cccc(F)c3)C2)C1  activity change, negative = inhibition              %            3.82
13            Cc1noc(C)c1-c1cncnc1NCc1ccccc1  activity change, negative = inhibition              %            6.38
14  Cc1cnc(CNc2ncnc3ccc(-c4c(C)noc4C)cc23)cn1  activity change, negative = inhibition              %           0.208
15           COc1cccc(-c2nccc(-n3ccnc3)n2)c1  activity change, negative = inhibition              %            4.69
16  COCC(=O)N1CCC2(CCCN(Cc3cc(C(F)(F)F)cc(C(F)(F)F)c3)C2)CC1  activity change, negative = inhibition              %          -0.278
17  CN(C)c1ncc2nc(-c3ccccc3)c(=O)n(-c3ccccc3)c2n1  activity change, negative = inhibition              %           -3.18
18  O=c1c(-c2cc(F)cc(F)c2)nc2cnc(N3CCNCC3)nc2n1-c1ccccc1  activity change, negative = inhibition              %            4.01
19     CN(C)Cc1ccccc1-c1cc(N(C)Cc2ccco2)ncn1  activity change, negative = inhibition              %            5.32
20  Cc1noc(C)c1C(=O)N1CCC2(CC1)CN(c1ccccc1)C2  activity change, negative = inhibition              %             4.6
21  Nc1nc(SCc2ccc([N+](=O)[O-])cc2)c2ncn([C@@H]3O[C@H](CO)[C@H](O)[C@H]3O)c2n1  activity change, negative = inhibition              %              -2
22  COc1ccc(CNc2cc(-c3cccc(C#N)c3)ncn2)c(OC)c1  activity change, negative = inhibition              %            7.91
23  O=C(c1ccncc1)N1CCC[C@@]2(CCN(c3ccccn3)C2)C1  activity change, negative = inhibition              %            4.35
24  Cc1noc(C)c1C(=O)N1CCC2(CCN(Cc3cc(C(F)(F)F)cc(C(F)(F)F)c3)CC2)CC1  activity change, negative = inhibition              %            2.45
25  O=C(O)CC[C@H](NC(=O)c1ccccc1C(=O)O)C(=O)O  activity change, negative = inhibition              %          -0.627
26  NCC1OC(O[C@@H]2[C@H](O)[C@@H](OC3C(O)C(N)CC(N)C3OC3OC(CO)C(O)C(O)C3N)O[C@@H]2CO)C(N)C(O)C1O (stereo partly drawn)  activity change, negative = inhibition              %            1.08
27  O=C(Nc1cccc(F)c1)N1CC[C@@]2(CCCN(C(=O)c3cccc(F)c3)C2)C1  activity change, negative = inhibition              %            6.49
28  COCCNc1ncnc2ccc(-c3ccc(C(=O)N(C)C)cc3)cc12  activity change, negative = inhibition              %         -0.0247
29  COc1cccc(Cn2c(=O)c(-c3cccs3)nc3cnc(N(C)C)nc32)c1  activity change, negative = inhibition              %            3.91
30   O=C(c1csnn1)N1CCC2(CC1)CCN(c1ncccn1)CC2  activity change, negative = inhibition              %            4.97
31  CS(=O)(=O)N1CCC2(CC1)CN(C(=O)Nc1cccc(C#N)c1)C2  activity change, negative = inhibition              %            1.36
32  CS(=O)(=O)Nc1cccc(-c2ccc3ncnc(NC4CCNCC4)c3c2)c1  activity change, negative = inhibition              %            4.99
33    CC(=O)NCCNc1ncnc2ccc(-c3c(C)noc3C)cc12  activity change, negative = inhibition              %            3.36
34  CS(=O)(=O)N1CCC2(CCN(C(=O)Nc3cccc(C#N)c3)CC2)CC1  activity change, negative = inhibition              %            2.84
35           Cc1nc2cnc(N(C)C)nc2n(CCC#N)c1=O  activity change, negative = inhibition              %            2.74
36  O=C(c1csnn1)N1CCC[C@@]2(CCN(c3ccccn3)C2)C1  activity change, negative = inhibition              %            3.43
37  O=S(=O)(c1ccccc1)N1CCC2(CC1)CN(c1ncccn1)C2  activity change, negative = inhibition              %            4.75
38      COc1ccccc1-c1ccc2ncnc(NC3CCNCC3)c2c1  activity change, negative = inhibition              %            4.79
39  O=C(c1cnccn1)N1CCC[C@@]2(CCN(C(c3ccccc3)c3ccccc3)C2)C1  activity change, negative = inhibition              %            -1.1
40  CC(=O)[C@@]1(O)CC[C@H]2C3CCC4=CC(=O)CC[C@]4(C)C3CC[C@@]21C (stereo partly drawn)  activity change, negative = inhibition              %            1.08
41  CN(C)c1ccc(-c2nc(NCCN3CCOCC3)c3ccccc3n2)cc1  activity change, negative = inhibition              %            3.01
42  COc1ccc(NC(=O)N2CCCC3(CCN(C(=O)c4csnn4)CC3)C2)cc1  activity change, negative = inhibition              %            6.81
43   COc1ccc(CNc2cc(-c3ccccc3Cl)ncn2)c(OC)c1  activity change, negative = inhibition              %             5.7
